- experiment_notes: Inhibition of Plasmodium falciparum falcipain-3 expressed in Escherichia coli
measured_quantity: IC50 (nM)
The answer is to be given in nM; state only the numeric part.

# lookup: IC50 of CC(C)CN(NC(=O)C(C)(C)c1ccc(CN2CCN(C)CC2)cc1)c1nc(C#N)ncc1Cl
46

# lookup: IC50 of CC(C)CN(NC(=O)c1ccc(CN2CCN(C)CC2)o1)c1nc(C#N)ncc1Br
12

# lookup: IC50 of CC(C)CN(NC(=O)OC(C)(C)C)c1nc(C#N)ncc1C#Cc1ccc(C(F)(F)F)cc1
5330

# lookup: IC50 of CC(C)(C)OC(=O)NN(CC1CC=CCC1)c1nc(C#N)ncc1Br (stereo not given)
41

# lookup: IC50 of CC(C)(C)OC(=O)NN(c1nc(C#N)ncc1Br)C1CCOCC1
28

# lookup: IC50 of CC(C)CN(NC(=O)c1cnc2ccccc2c1)c1nc(C#N)ncc1Cl
126

# lookup: IC50 of CC(C)CN(NC(=O)c1ccc(Cc2ccccc2)cc1)c1nc(C#N)ncc1Cl
962

# lookup: IC50 of CC(C)CN(NC(=O)c1ccc(OCCN2CCOCC2)cc1)c1nc(C#N)ncc1Cl
90

# lookup: IC50 of CC(C)CN(NC(=O)c1ccc(-c2ccccc2)o1)c1nc(C#N)ncc1Br
39

# lookup: IC50 of CCC(C)CN(NC(=O)c1ccc(CN2CCN(C)CC2)cc1)c1nc(C#N)ncc1Br (stereo not given)
35

* * *

- experiment_notes: Inhibition of Plasmodium falciparum falcipain-3 expressed in Escherichia coli
measured_quantity: pIC50
Lab note — pIC50 values are minus log10 of concentrations in M.

# lookup: pIC50 of CC(C)CN(NC(=O)c1ccc(-c2ccccc2)s1)c1nc(C#N)ncc1Br
6.26

# lookup: pIC50 of CN1CCN(Cc2ccc(C(=O)NN(Cc3ccoc3)c3nc(C#N)ncc3Br)cc2)CC1
6.88

# lookup: pIC50 of CC(C)(C)OC(=O)NN(CC1CCCCC1)c1nc(C#N)ncc1Br
6.84

# lookup: pIC50 of CN1CCN(Cc2ccc(C(=O)NN(c3nc(C#N)ncc3Br)C3CCOCC3)cc2)CC1
7.77

# lookup: pIC50 of CC(C)CN(NC(=O)OC(C)(C)C)c1ccnc(C#N)n1
6.06

* * *

- experiment_notes: Inhibition of Plasmodium falciparum falcipain-3 expressed in Escherichia coli
Assign log10 IC50 to each entry below.
Scale: decimal log of IC50, IC50 in nM.

# lookup: log10 IC50 of CC(C)CN(NC(=O)c1ccccc1Oc1ccccc1)c1nc(C#N)ncc1Br
1.82

# lookup: log10 IC50 of CC(C)CN(c1nc(C#N)ncc1Cl)N(CCCN1CCN(C)CC1)C(=O)Cc1ccccc1
1.89

# lookup: log10 IC50 of COc1ccc2oc(C(=O)NN(CC(C)C)c3nc(C#N)ncc3Br)cc2c1
3.09

# lookup: log10 IC50 of CC(C)CN(NC(=O)c1cc(-c2ccccc2)cs1)c1nc(C#N)ncc1Br
2.57

# lookup: log10 IC50 of CC(C)CN(NC(=O)OC(C)(C)C)c1nc(C#N)ncc1Cl
2.16

# lookup: log10 IC50 of CC(C)(C)OC(=O)NN(CCC1C=CCC1)c1nc(C#N)ncc1Br (stereo unspecified)
2.49

# lookup: log10 IC50 of CC1CCC(N(NC(=O)OC(C)(C)C)c2nc(C#N)ncc2Br)C1 (stereo unspecified)
1.72

# lookup: log10 IC50 of CC(C)CN(NC(=O)C1(c2ccc(Cl)cc2)CCCC1)c1nc(C#N)ncc1Br
2.26

# lookup: log10 IC50 of CC(C)CN(NC(=O)c1cccc(-c2ccccc2)c1)c1nc(C#N)ncc1Br
1.57

# lookup: log10 IC50 of CC(C)CN(NC(=O)c1ccc2[nH]cnc2c1)c1nc(C#N)ncc1Cl
1.97

# lookup: log10 IC50 of CN1CCN(Cc2ccc(C(=O)NN(CC3CCCCC3)c3nc(C#N)ncc3Br)cc2)CC1
1.20

# lookup: log10 IC50 of COc1ccc(CC(=O)NN(CC(C)C)c2nc(C#N)ncc2Cl)cc1
0.70

# lookup: log10 IC50 of CN1CCN(Cc2ccc(C(=O)NN(CCC(C)(C)C)c3nc(C#N)ncc3Br)cc2)CC1
1.59

# lookup: log10 IC50 of Cc1c(C(=O)NN(CC(C)C)c2nc(C#N)ncc2Br)noc1-c1ccccc1
1.85

# lookup: log10 IC50 of CC(C)CN(NC(=O)OC(C)(C)C)c1nc(C#N)ncc1F
2.77

# lookup: log10 IC50 of CC(C)CN(NC(=O)c1c[nH]c(-c2ccccc2)n1)c1nc(C#N)ncc1Br
2.16

# lookup: log10 IC50 of CC(C)CN(NC(=O)c1ccc(-n2cncn2)cc1)c1nc(C#N)ncc1Br
1.72

# lookup: log10 IC50 of CC(C)CN(NC(=O)Cc1ccc(OCCN2CCOCC2)cc1)c1nc(C#N)ncc1Cl
0.90

# lookup: log10 IC50 of CC(C)CN(NC(=O)c1cccc2c1Cc1ccccc1-2)c1nc(C#N)ncc1Br
2.52

# lookup: log10 IC50 of CCCC(CCC)CN(NC(=O)c1ccc(CN2CCN(C)CC2)cc1)c1nc(C#N)ncc1Br
2.90

# lookup: log10 IC50 of Cc1oc(-c2ccccc2)cc1C(=O)NN(CC(C)C)c1nc(C#N)ncc1Br
2.92

# lookup: log10 IC50 of CC1OCCC1CN(NC(=O)c1ccc(CN2CCN(C)CC2)cc1)c1nc(C#N)ncc1Br (stereo unspecified)
1.88

# lookup: log10 IC50 of CC(C)CN(NC(=O)c1cccc2c1C(=O)c1ccccc1-2)c1nc(C#N)ncc1Br
2.92

# lookup: log10 IC50 of COc1ccc(C(C)(C)C(=O)NN(CC(C)C)c2nc(C#N)ncc2Br)cc1
1.53

# lookup: log10 IC50 of CN1CCN(Cc2ccc(C(=O)NN(CC3(C)CCCCC3)c3nc(C#N)ncc3Br)cc2)CC1
1.23

# lookup: log10 IC50 of COc1ccc(-c2cc(C(=O)NN(CC(C)C)c3nc(C#N)ncc3Br)no2)cc1
2.84

# lookup: log10 IC50 of CC(C)CN(NC(=O)OC(C)(C)C)c1nc(C#N)ncc1NCc1ccccc1
3.32

# lookup: log10 IC50 of Cc1nn(-c2ccccc2)nc1C(=O)NN(CC(C)C)c1nc(C#N)ncc1Br
3.04

# lookup: log10 IC50 of CC(C)CN(NC(=O)C(C)(C)c1ccc(Cl)cc1)c1nc(C#N)ncc1Br
1.26

# lookup: log10 IC50 of CC(C)CN(NC(=O)c1cc2ccccc2[nH]1)c1nc(C#N)ncc1Br
2.81

# lookup: log10 IC50 of CC(C)CN(NC(=O)OC(C)(C)C)c1cncc(C#N)n1
3.22

# lookup: log10 IC50 of CN1CCN(Cc2ccc(C(=O)NN(CC3CCCO3)c3nc(C#N)ncc3Br)cc2)CC1 (stereo unspecified)
2.00

# lookup: log10 IC50 of CC(C)CN(NC(=O)c1cncc(-c2ccccc2)c1)c1nc(C#N)ncc1Br
0.60

# lookup: log10 IC50 of Cc1c(C(=O)NN(CC(C)C)c2nc(C#N)ncc2Br)oc2ccccc12
3.16

# lookup: log10 IC50 of CC(=O)NC1CCC(N(NC(=O)c2ccc(CN3CCN(C)CC3)cc2)c2nc(C#N)ncc2Br)CC1 (stereo unspecified)
1.94

# lookup: log10 IC50 of COc1cnc(C#N)nc1N(CC(C)C)NC(=O)OC(C)(C)C
3.38

# lookup: log10 IC50 of Cc1c(C(=O)NN(CC(C)C)c2nc(C#N)ncc2Br)n(C)c2ccccc12
2.49

# lookup: log10 IC50 of C[C@H]1CCC[C@H]1N(NC(=O)c1ccc(CN2CCN(C)CC2)cc1)c1nc(C#N)ncc1Br (relative stereo)
1.61

# lookup: log10 IC50 of CC(C)CN(NC(=O)C(N)c1ccccc1)c1nc(C#N)ncc1Br (stereo unspecified)
1.53
